biological target: Short transient receptor potential channel 4 (Mus musculus); test: blockers of DAMGO-evoked TRPC4 calcium flux – cell-based, second round, Fluo4, HEK293 TRPC4beta/mu-opioid, 1 µM, confirmation (AID 2637); settings: at 1 µM
The source made the active and inactive calls.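 How the source made its calls: active means calcium signal ratio cut to more than 3 SD under the fully stimulated control mean yet still positive, in both repeats and the primary screen; inactive means the rest.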
Outcome codes: yes (active), no (inactive)

| Compound | Group label |
| --- | --- |
| CCC(=O)c1cc2c(C)cc(=O)oc2c(C)c1OC(=O)C(C)C | no |
| CCOC(=O)Cc1csc(NC(=O)NC2(C(F)(F)F)Oc3cc(Cl)c(Cl)cc3O2)n1 | yes |
| COc1ccc(-n2c3c(cc(C(=O)NNc4ccccc4)c2=O)C(=O)CC(C)(C)C3)cc1 | no |
| O=C(OCCCCN1C(=O)c2ccccc2C1=O)c1ccc(S(=O)(=O)N2CCCC2)cc1 | no |
| COc1ccc(C2C(C(C)=O)=C(O)C(=O)N2c2ccc(Br)cc2)cc1 (stereo not drawn) | yes |
| CN(C)CCCNc1c2ccccc2nc2ccccc12 | yes |
| Cc1ccc(NC(=O)c2cccs2)cc1 | no |
| N=c1c2c3c(sc2ncn1Cc1ccccc1)CCCC3 | no |
| COc1cc(NC(=O)C(C)Oc2ccccc2)cc(OC)c1 (stereo not drawn) | no |
| CN(CC(=O)Nc1ccc(F)cc1)C(=O)COC(=O)C1CCN(c2ccc(C(F)(F)F)cn2)CC1 | no |
| Cc1cc2cc(CN(Cc3cccs3)C(=S)NCc3ccco3)c(=O)[nH]c2cc1C | no |
| CNC(=S)NNC(=O)c1cccn(Cc2cccc(C(F)(F)F)c2)c1=O | no |
| CCN(CC)CCCNC(=S)N1CCN(c2nc3ccccc3n2CC)CC1 | no |
| CC(C)Cn1c(CN2CCN(C)C(CCO)C2)nc2ccccc21 (stereo not drawn) | no |
| CCN(CC)CCn1c2ccccc2c2cnc(N)c(C#N)c21 | no |
| CCn1c(N2CCN(C(=S)NCCc3ccccc3)CC2)nc2ccccc21 | no |
| COc1ccc(-n2ncc3c(N4CCc5ccccc54)ncnc32)cc1 | no |
| CNC(=S)N1CCN(C(c2ccccc2)c2ccccc2)CC1 | no |
| O=C1/C(=C\c2cc([N+](=O)[O-])ccc2O)SC(=S)N1Cc1ccc(Cl)cc1 | no |
| CNCC(=O)N1CCN(c2ncc(C(F)(F)F)cc2Cl)CC1 | no |
| O=C(Cc1cn(Cc2cccc(Cl)c2)c2ccccc12)N1CCCC1 | no |
| COc1ccccc1/C=C/CN1CCCC(CCC(=O)NCc2ccccc2F)C1 (stereo not drawn) | no |
| CN(C)C(CNC(=O)c1ccc(S(=O)(=O)NCc2ccco2)cc1)c1ccccc1 (stereo not drawn) | no |

* * *

biological target: Short transient receptor potential channel 4 (Mus musculus) (UniProt Q9QUQ5); experiment: blockers of DAMGO-evoked TRPC4 calcium flux – cell-based, second round, Fluo4, HEK293 TRPC4beta/mu-opioid, 1 µM, confirmation (AID 2637); conditions: at 1 µM
Sequence (Q9QUQ5 whole entry, looked up): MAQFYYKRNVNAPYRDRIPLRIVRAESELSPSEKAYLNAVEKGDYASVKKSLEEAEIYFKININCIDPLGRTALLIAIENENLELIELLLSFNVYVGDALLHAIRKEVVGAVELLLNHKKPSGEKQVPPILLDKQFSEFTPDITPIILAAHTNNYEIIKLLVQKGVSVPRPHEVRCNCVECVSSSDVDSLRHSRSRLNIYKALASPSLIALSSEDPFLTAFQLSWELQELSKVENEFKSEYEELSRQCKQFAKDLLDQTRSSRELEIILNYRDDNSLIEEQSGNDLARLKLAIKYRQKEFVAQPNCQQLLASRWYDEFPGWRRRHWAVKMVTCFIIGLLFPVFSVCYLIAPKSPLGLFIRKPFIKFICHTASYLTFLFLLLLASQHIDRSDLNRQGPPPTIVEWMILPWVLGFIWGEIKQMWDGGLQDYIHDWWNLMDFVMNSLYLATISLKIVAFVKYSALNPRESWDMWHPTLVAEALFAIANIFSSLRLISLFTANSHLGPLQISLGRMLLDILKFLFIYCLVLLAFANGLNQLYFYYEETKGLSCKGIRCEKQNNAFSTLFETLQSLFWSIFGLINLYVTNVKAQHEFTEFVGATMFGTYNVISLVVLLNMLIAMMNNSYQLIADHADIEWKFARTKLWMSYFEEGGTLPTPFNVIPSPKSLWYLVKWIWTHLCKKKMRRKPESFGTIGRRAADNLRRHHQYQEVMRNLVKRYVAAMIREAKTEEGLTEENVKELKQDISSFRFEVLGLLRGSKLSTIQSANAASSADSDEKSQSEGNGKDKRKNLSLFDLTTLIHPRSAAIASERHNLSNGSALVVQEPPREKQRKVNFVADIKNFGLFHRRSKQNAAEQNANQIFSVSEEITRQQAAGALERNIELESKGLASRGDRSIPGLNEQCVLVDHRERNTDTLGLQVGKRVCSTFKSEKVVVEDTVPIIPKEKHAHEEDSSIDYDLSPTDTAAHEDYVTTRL
Activity calls are given as the source filed them.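 Rule for the calls: active = calcium signal ratio cut to more than 3 SD under the fully stimulated control mean yet still positive, in both repeats and the primary screen; inactive = the rest.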
Outcome codes: active, inactive

| Compound | Group label |
| --- | --- |
| C=CCc1ccccc1OCC(O)CN1CCN(c2ccccc2OC)CC1 (configuration not stated) | inactive |
| COc1ccc(-c2nn(-c3ccccc3C)cc2CNC(C)c2cn(C)nc2C)cc1F (configuration not stated) | inactive |
| CCC1(C(=O)c2ccccc2)C(c2ccc([N+](=O)[O-])cc2)C1(C(=O)OC)C(=O)OC (configuration not stated) | inactive |
| O=C1NC(c2ccccc2)=C(c2nc3ccccc3s2)C(c2ccccc2)N1 (configuration not stated) | inactive |
| COc1ccc(/C=C(\C#N)C(=O)N2CCOCC2)cc1Br | inactive |
| CCCCCCCCCC[n+]1cccc2c3ccccc3ccc21 | inactive |
| Cn1c(=O)cc(OCCCC(=O)NCCCN2CCN(Cc3ccccc3)CC2)c2ccccc21 | inactive |
| COc1ccccc1NC(=O)CSc1n[nH]c(-c2ccccn2)n1 | inactive |
| CC(C)c1nc2ccc(Br)cn2c1NC1CCCC1 | inactive |
| N#Cc1c(-c2cccs2)nc(SCc2ccc(Cl)cc2)[nH]c1=O | active |
| CCc1cccc(OCC(=O)Nc2ccc(C(=O)O)cc2NC(=O)COc2cccc(CC)c2)c1 | inactive |
| COc1cc(/C=C2\SC(=O)N(c3ccccc3Cl)C2=O)cc([N+](=O)[O-])c1O | inactive |
| CCOc1ccc(N=CNc2ccc(OCC)cc2)cc1 | inactive |
| COc1cccc(/C=C2\SC(=S)N(NS(=O)(=O)c3ccc(C)cc3)C2=O)c1OC | inactive |
| C#CC[N+]1(CC#Cc2cccc3ccccc23)CCOCC1 | inactive |
| Cc1cc(-c2ccc(C)c(S(=O)(=O)N3CCN(C(=O)c4ccco4)CC3)c2)on1 | inactive |
| O=C(c1ccccc1)C1CCc2occc2C1=O (configuration not stated) | inactive |
| CC(C)(C)n1nnnc1C(c1ccc(Cl)cc1)N(Cc1cccnc1)Cc1ccco1 (configuration not stated) | inactive |
| COc1cc(COCC(O)CN2CCN(CCN3C(=O)c4cccc5cccc(c45)C3=O)CC2)cc(OC)c1OC (configuration not stated) | inactive |
| Cc1cccc(N2CCN(C(=O)C3(S(=O)(=O)c4ccc(Cl)cc4)CC3)CC2)c1C | inactive |
| O=C(CN1CCCN(S(=O)(=O)c2ccc(F)cc2)CC1)Nc1ccccc1Br | inactive |
| CCn1nc(C)c(CN2CCCC(CO)(Cc3cccc(Cl)c3)C2)c1C (configuration not stated) | active |
